# ASSAY_METHOD_TEXT: probe aNOTCH2 binding on compound microarray – biochemical, small-molecule microarray, 635/667 nm fluorescence, primary screen (AID 1121);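 note: score merges feature fluorescence read at 667 nm with its signal to noise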
# EXPERIMENTAL_PARAMETERS: higher = more signal
# thresholds on composite z-score define classes: low bracket (below -0.09), middle bracket (-0.09 to below 0.1), high bracket (0.1 or more)

Reference set, count: 5
COMPOUND	GROUP_LABEL
C=C[C@H](C)[C@H](OC(=O)Nc1ccc(OC)cc1)c1ccc(O)c2ccccc12	low bracket
CC[C@@H]1C=C(C(=O)O)[C@H](c2ccc(C(C)C)cc2)N1S(=O)(=O)c1ccc(C)cc1	high bracket
CC(C)NC(=O)[C@@H]1c2ccccc2C(=O)N(C2CCCCC2)[C@H]1c1ccc(CO)cc1	middle bracket
[N-]=[N+]=Nc1ccccc1C[C@]1(C(=O)N2CCCCC2)N=C(c2ccc(OCCCO)cc2)O[C@H]1c1ccccc1N=[N+]=[N-]	high bracket
COc1c(C)cc(-c2cc3c(c(-c4ccccc4)n2)[Si](C(C)C)(C(C)C)O[C@H]3c2ccccc2)cc1C	low bracket

Qu. Which class holds CN(C)CCCCCCNC(=O)[C@@H]1C[C@@H]2C(=O)NCC(=O)N2[C@@H]1c1cccc(OCCO)c1 ?
Ans. middle bracket

Qu. Which class holds [N-]=[N+]=NCc1ccccc1C[C@]1(C(N)=O)N=C(c2ccc(OCCCO)cc2)O[C@H]1c1ccccc1N=[N+]=[N-] ?
Ans. middle bracket

Qu. Which class holds CCCCCCC#C[Si](O[C@H](c1ccccc1)c1cn([C@H](C)c2ccccc2)nn1)(C(C)C)C(C)C ?
Ans. middle bracket

Qu. Which class holds CC(c1ccccc1)C(O)C1C=CC2C(=O)N(c3ccccc3)C(=O)C2N1Nc1ccccc1F (stereo not drawn) ?
Ans. middle bracket

Qu. Which class holds COc1cc2c(cc1O)C(c1ccc(CN3CCCC3)cc1)N(Cc1sc3ccccc3c1Cl)CC2 (stereo not drawn) ?
Ans. middle bracket

Qu. Which class holds CCCNC(=O)[C@@]1(c2ccc([N+](=O)[O-])cc2)CC(=O)N(CC23CC4CC(CC(C4)C2)C3)[C@@H]1c1ccc(CO)cc1I ?
Ans. high bracket

Qu. Which class holds CCOC(=O)C1=C[C@@H](C(C)(C)C)N(S(=O)(=O)c2ccc(C)cc2)[C@H]1c1ccc(Cl)c(Cl)c1 ?
Ans. middle bracket

====

# ASSAY_METHOD_TEXT: JC-1 mitochondrial signal, unstimulated MM1S myeloma – cell-based, JC-1 fluorescence, 24 h, 100 nL compound, profiling panel (AID 1170); note: test concentration not given here
# EXPERIMENTAL_PARAMETERS: MM1S mitochondrial potential, higher = more signal
Listing: z-score of selected molecules
Reply briefly: the number, and no unit.

QUERY_SMILES	RESULT_NUMBER
O=C1C[C@@](C(=O)O)(c2ccc([N+](=O)[O-])cc2)[C@@H](c2ccc(CO)cc2I)N1C1CCCCC1	-1.86

Qu. Please list z-score recorded for the molecule COCCOC(=O)N1C(=O)[C@@]2(c3cc(C#CCC(C(=O)OC)C(=O)OC)ccc31)[C@H](c1ccc(OCCO)cc1)N1[C@H](c3ccccc3)[C@H](c3ccccc3)OC(=O)[C@H]1[C@@H]2C(=O)NC[C@H](O)c1ccccc1
Ans. -1.61

Qu. Please list z-score recorded for the molecule COCCCNC(=O)[C@@]1(C)c2ccccc2C(=O)N(Cc2ccccc2)[C@H]1c1ccc(CO)cc1
Ans. -0.514

====

Listing: composite z-score of selected compounds
# SYSTEM_UNDER_TEST: Fibroblast growth factor 2 (Homo sapiens)
# ASSAY_METHOD_TEXT: basic fibroblast growth factor binding to printed compounds – biochemical, small-molecule microarray, 635/667 nm fluorescence, primary screen (AID 1133)
# EXPERIMENTAL_PARAMETERS: FGF2, fluorescence 635/667, higher = more signal
Reply briefly: the number, and no unit.

Consider the following illustrative entries.
COMPOUND	ASSAY_ENDPOINT	RESULT_NUMBER
Cc1ccc(F)cc1S(=O)(=O)N[C@@H]1CCN(Cc2ccc(C(F)(F)F)cc2)C1	composite z-score	-0.456
[N-]=[N+]=Nc1ccccc1C[C@]1(C(=O)N2CCCCC2)N=C(c2ccc(OCCCO)cc2)O[C@H]1c1ccccc1N=[N+]=[N-]	composite z-score	0.806
CCN(CC)c1ccc(N2CC=CC34O[C@@H]5/C=C\CCCOC(=O)C5[C@H]3C(=O)N(CCCO)[C@@H]4C2=O)cc1 (stereo not given in full)	composite z-score	-0.942
Cc1cc(C)c(C(O)C2C=CC3C(=O)NC(=O)C3N2Nc2ccccn2)c(C)c1 (stereo not given)	composite z-score	-0.719
CCOC(=O)C[C@H]1[C@H](OC(=O)c2cc3ccccc3oc2=O)[C@@H](NC(=O)c2ccc3ccccc3c2)c2cc(OCCCO)ccc2N1C(=O)c1ccccc1	composite z-score	0.512
C=C[C@@H](C)[C@@H](OC(=O)Nc1ccc(OC)cc1)c1ccc(O)c2ccccc12	composite z-score	1.22
C=CCC(OC(C)=O)[C@@H]1[C@@H](N(Cc2ccc(-c3cccc(C(F)(F)F)c3)o2)C(=O)c2ccc(C)cc2)c2cc(OCCCO)ccc2N1C(=O)c1ccc2ccccc2n1 (stereo not given in full)	composite z-score	0.131
O=C1C2C=CC(C(O)c3ccccn3)N(Nc3ccccc3F)C2C(=O)N1c1ccccc1 (stereo not given)	composite z-score	-0.0308
COC(=O)[C@@]1(Cc2ccc(OC)cc2)[C@H]2c3cc(C(=O)N4CCCC4)n(CCc4ccccn4)c3C[C@H]2CN1C(=O)c1ccccc1	composite z-score	-0.676

Next compound, composite z-score to be filled in.
Qu. Please list composite z-score recorded for the compound Cc1ccc(N2C(=O)c3ccccc3[C@@H](C(=O)NC(C)C)[C@@H]2c2ccc(CO)cc2)nc1
Ans. 1.55

====

# ASSAY_METHOD_TEXT: probe aNOTCH2 binding on compound microarray – biochemical, small-molecule microarray, 635/667 nm fluorescence, primary screen (AID 1121);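 note: score merges feature fluorescence read at 667 nm with its signal to noise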
# EXPERIMENTAL_PARAMETERS: higher = more signal
Note to self: values exactly at -0.1 are class 1. So composite z-score at or above -0.1 is class 1, below is class 0.

Qu. Has O=C1OCCC=C[C@H]2OC34C=CCN(CCN5CCOCC5)C(=O)[C@H]3N(CCO)C(=O)[C@@H]4C12 (stereo not given in full) a recorded composite z-score greater than or equal to -0.1?
Ans. class 0

Qu. Has COCCOC(=O)N1C(=O)[C@@]2(c3cc(C#CC4=CCCCC4)ccc31)[C@H](c1ccc(OCCO)cc1)N1[C@H](c3ccccc3)[C@H](c3ccccc3)OC(=O)[C@H]1[C@@H]2C(=O)Nc1nc2ccccc2s1 a recorded composite z-score greater than or equal to -0.1?
Ans. class 1

====

Listing: composite z-score of selected compounds
# SYSTEM_UNDER_TEST: Albumin (Bos taurus)
# ASSAY_METHOD_TEXT: compounds binding labelled BSA control protein – biochemical, small-molecule microarray, Alexa647 label, 635/667 nm fluorescence, artefact control for SMM control protein annotation, profiling panel (AID 1118);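 note: score merges 667 nm emission intensity and signal-to-noise per printed compound spot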
# EXPERIMENTAL_PARAMETERS: BSA-A647 binding, fluorescence 635 nm, higher = more signal
Reply briefly: the number, and no unit.

Consider the following illustrative entries.
COMPOUND	ASSAY_ENDPOINT	RESULT_NUMBER
[N-]=[N+]=Nc1ccccc1[C@@H]1OC(c2ccc(OCCCO)cc2)=N[C@]1(CCS(=O)(=O)c1ccccc1)C(=O)N1CCCCC1	composite z-score	1.03
C=C(/C(=C/C[C@@H](OC(=O)c1ccncc1)c1ccc(CO)o1)c1cc(C(=O)OC)ccc1OC)C(C)C	composite z-score	0.83
O=C(NCC(O)CO)[C@@]1(Cc2ccccc2)N=C(c2ccc(OCCCO)cc2)O[C@H]1c1ccccc1 (some centres not stated)	composite z-score	0.944

Next compound, composite z-score to be filled in.
Qu. // fetch composite z-score for O=C1C2C=CC(C(O)c3ccc(B(O)O)cc3)N(Nc3ccc([N+](=O)[O-])cc3)C2C(=O)N1c1ccccc1 (configuration not stated) ; system: Albumin (Bos taurus)
Ans. 0.832

====

Listing: composite z-score of selected compounds
# Test system: Neuregulin-1 EGF-like domain
# ASSAY_METHOD_TEXT: small molecules binding NRG1 EGF domain – biochemical, small-molecule microarray, 635 nm fluorescence, primary screen (AID 1081);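 note: binding of the protein to compounds printed on small-molecule microarray slides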
# EXPERIMENTAL_PARAMETERS: higher = more signal
Reply briefly: the number, and no unit.

Consider the following illustrative entries.
COMPOUND	composite z-score
Cc1ccc(S[C@]2(C(=O)NCC(C)C)CC(=O)N(Cc3ccccc3)[C@@H]2c2ccc(CO)cc2)cc1	0.221
Cc1ccc(S(=O)(=O)N2CC(C(=O)O)=CCC2c2ccccc2)cc1 (stereo not given)	-0.11

Qu. Please list composite z-score recorded for the compound Cc1ccc(S[C@]2(C(=O)NCC(F)(F)F)CC(=O)N(C3Cc4ccccc4C3)[C@@H]2c2ccc(CO)cc2I)cc1
Ans. 0.455

Qu. Please list composite z-score recorded for the compound CN(C)CCCCCCNC(=O)[C@@H]1C[C@@H]2C(=O)NCC(=O)N2[C@@H]1c1cccc(OCCO)c1
Ans. 1.26

Qu. Please list composite z-score recorded for the compound C=CCNC(=O)[C@H]1[C@@H]2C(=O)O[C@@H](c3ccccc3)[C@@H](c3ccccc3)N2[C@@H](c2ccc(O)cc2)[C@]12C(=O)Nc1ccc(C#Cc3ccc(OC)cc3)cc12
Ans. 1.07
